Numbers sourced from PubChem BioAssay (NCI).

Assay name: NCI Yeast Anticancer Drug Screen. Data for the mec2-1 strain (AID 157)
Test settings: S. cerevisiae mec2-1 strain, at 50.0 µM, stronger effect = higher value
Method: Growth inhibition of yeast strains with defined genetic alterations is measured as a screen for potential anti-cancer activity. Selected strains with alterations in DNA damage repair or cell cycle control were exposed to compounds and growth inhibition was measured relative to vehicle treated controls. The strain used in this assay is mec2-1
This is part of a sample that, as a whole, favours compounds with a hit. Of some 79,000 tested, about 15% had one in any assay.
Property: growth inhibition (%)
Give the value, in units of %, as a plain number.

CCCCSc1n[nH]c(=O)nc1N
-7.95

Consider the compound `CCc1ccc2ccccc2c1N` . State its measured growth inhibition.
8.05

Query growth inhibition for `C=CCCCCCCCCC(=O)OCC(C)C`
22.4

====

Assay name: NCI Yeast Anticancer Drug Screen. Data for the mec2-1 strain (AID 157)
Test settings: S. cerevisiae mec2-1 strain, at 50.0 µM, stronger effect = higher value
About 79,000 compounds went through this panel and 15% of them were active in at least one assay; those are over-represented in the sample as a whole. Active and inactive are the calls of the source. Cut-off read from the data, not from the text of the source: active = growth inhibition above about 70%; inactive = the rest.
The following molecules are listed with their measured growth inhibition values.

Past entries and their recorded results:
NC(CC1C=CC=CC1)C(=O)O (stereo unspecified)
3.15% (inactive)
O=[N+]([O-])c1ccc(Cl)c(N=Nc2ccccn2)c1
-14.9% (inactive)
Cc1ccc(S(=O)(=O)/C(C#N)=C/NC(=S)Nc2ccc(C)cc2C)cc1
-26.9% (inactive)

Using the record for C/C(=C1\SC(=S)N(C2OC(CO)C(O)C(O)C2O)C1=O)c1ccco1 (stereo unspecified) , state its measured growth inhibition.
-9.3% (inactive)

Provide one value: measured growth inhibition of CCCN(CCCCC(NC(C)=O)C(=O)NCc1ccccc1)C(=O)NC (stereo unspecified)
-27.8% (inactive)

Note down growth inhibition recorded for N#CC(NCCc1ccccc1)c1ccccc1 (stereo unspecified)
-3.1% (inactive)

====

This section presents compounds with their documented growth inhibition values.
Assay name: NCI Yeast Anticancer Drug Screen. Data for the mec2-1 strain (AID 157)
Test settings: S. cerevisiae mec2-1 strain, at 50.0 µM, stronger effect = higher value
This is part of a sample that, as a whole, favours compounds with a hit. Of some 79,000 tested, about 15% had one in any assay. Activity calls are given as the source filed them. Cut-off read from the data, not from the text of the source: active = growth inhibition above about 70%; inactive = the rest.

Answered examples (10):
COC(=O)c1c2c(cc3c1CC1(C3)Cc3cc4c(c(C(=O)OC)c3C1)CCC4)CCC2
-35.6% (inactive)
O=C1CN(N2C(=O)CSC2C23CC4CC(CC(C4)C2)C3)C(=O)CN1c1ccccc1 (centres undefined)
2.1% (inactive)
N#CC1=C(N)C(c2ccccc2)(c2ccccc2)CC1
29.6% (inactive)
COc1ccc(/C=C/C(=O)OCCC(C)C)cc1
-16.3% (inactive)
CCCC(P(c1ccccc1)c1ccccc1)P(=O)(c1ccccc1)c1ccccc1 (centres undefined)
39.2% (inactive)
COc1cc([N+](=O)[O-])c2[nH]c(=O)ccc2c1
19.7% (inactive)
CCCN/C=C1\CC(=O)N(C)C1=O
8.45% (inactive)
COc1cc(C2C(C(=O)Nc3ccccc3C)=C(C)NC(C)=C2C(=O)Nc2ccccc2C)ccc1O
-8.45% (inactive)
O=C(O)C(CCc1ccccn1)c1ccccc1 (centres undefined)
-26.2% (inactive)
COC(=O)c1ccccc1CC1Cc2cc3c(cc2C1)CCC3
7.1% (inactive)

Indicate the recorded growth inhibition value for this compound: `Cc1ccccc1C(=O)N1CCOCC1`
3.7% (inactive)

Report growth inhibition for `Clc1nncc(SCc2ccccc2)c1SCc1ccccc1`
11.6% (inactive)

Read off the recorded growth inhibition for CNC(=O)C(c1ccccc1)C(O)c1ccccc1 (centres undefined)
-3.7% (inactive)

Input `Cc1ccc(SC(=O)Cc2ccc([N+](=O)[O-])cc2)cc1` , output reported growth inhibition.
98% (active)

Supply reported growth inhibition belonging to this compound: `Cc1cc(C)c(S(N)(=O)=O)c(C)c1`
-16.6% (inactive)

Give recorded growth inhibition. CC(=O)OCC1OC(SC2=NC(=O)/C(=C/c3ccccc3)S2)C(OC(C)=O)C(OC(C)=O)C1OC(C)=O (centres undefined)
35.4% (inactive)
